Where do these numbers come from? They come from patent US6667313B1.

What EC50 was measured for each of the following?
# assayed.system: human AR (Homo sapiens, UniProt P10275)
# Sequence (P10275 whole entry): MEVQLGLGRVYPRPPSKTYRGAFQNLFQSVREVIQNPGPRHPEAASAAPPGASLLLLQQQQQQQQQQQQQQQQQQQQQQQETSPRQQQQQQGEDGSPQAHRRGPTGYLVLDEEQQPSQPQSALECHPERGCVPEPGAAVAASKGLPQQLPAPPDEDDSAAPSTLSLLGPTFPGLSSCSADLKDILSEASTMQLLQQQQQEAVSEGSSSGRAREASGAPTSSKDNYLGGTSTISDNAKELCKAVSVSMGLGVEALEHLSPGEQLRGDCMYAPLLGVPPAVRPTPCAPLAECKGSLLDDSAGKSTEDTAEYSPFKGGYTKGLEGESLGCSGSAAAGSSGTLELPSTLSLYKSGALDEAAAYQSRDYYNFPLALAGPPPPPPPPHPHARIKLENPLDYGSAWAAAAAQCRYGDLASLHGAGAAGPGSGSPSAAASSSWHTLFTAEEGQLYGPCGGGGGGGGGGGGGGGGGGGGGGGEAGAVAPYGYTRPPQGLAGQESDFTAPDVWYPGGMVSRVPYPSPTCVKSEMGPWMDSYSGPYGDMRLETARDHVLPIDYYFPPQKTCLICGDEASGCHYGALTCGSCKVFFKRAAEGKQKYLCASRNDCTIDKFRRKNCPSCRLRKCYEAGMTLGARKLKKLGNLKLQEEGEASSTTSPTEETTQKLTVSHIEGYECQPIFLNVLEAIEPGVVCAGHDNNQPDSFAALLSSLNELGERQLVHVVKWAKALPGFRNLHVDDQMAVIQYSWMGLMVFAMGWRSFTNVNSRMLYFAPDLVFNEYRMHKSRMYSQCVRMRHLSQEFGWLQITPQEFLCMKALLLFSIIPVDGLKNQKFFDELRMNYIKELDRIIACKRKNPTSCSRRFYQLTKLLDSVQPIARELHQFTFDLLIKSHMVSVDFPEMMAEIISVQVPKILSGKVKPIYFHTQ
# protocol: Co-transfection assay, AR agonist, CV-1 cells
The figure you give is taken to be in nM; do not add the unit.

In: Request: EC50, test system human AR (Homo sapiens, UniProt P10275), entry CCC1CCNc2cc3nc(Br)cc(C(F)(F)F)c3cc21 (racemic) [Compound 121]
Out: 22

In: CCC1CCNc2cc3nc(Cl)cc(C(F)(F)F)c3cc21 (racemic) [Compound 108] ?
Out: 73

In: CCC1CCNc2cc3nc(SC)cc(C(F)(F)F)c3cc21 (racemic) [Compound 142] ?
Out: 221

In: CCC1CCNc2cc3nc(F)cc(C(F)(F)F)c3cc21 (racemic) [Compound 116] ?
Out: 37

In: CCC1CCNc2cc3nc(Cl)c(F)c(C(F)(F)F)c3cc21 (racemic) [Compound 109] ?
Out: 89

In: CC1(C)CCc2cc3c(C(F)(F)F)c(F)c(Cl)nc3cc2N1 [Compound 107] ?
Out: 1040

In: CCC1CCNc2cc3nc([S+](C)[O-])cc(C(F)(F)F)c3cc21 (racemic) [Compound 143] ?
Out: 33

====

# assayed.system: human AR (Homo sapiens, UniProt P10275)
# protocol: Co-transfection assay, AR antagonist, CV-1 cells (in presence of DHT)
# Assay type: cell-based
# assay.context: CV-1 cells; percent maximal inhibition, DHT at EC50
// FALSE strictly below 60% in AR Antagonist CV-1 Cells Efficacy (%); TRUE otherwise

In: Assess whether reported AR Antagonist CV-1 Cells Efficacy (%) for CCC1CCNc2cc3nccc(C(F)(F)F)c3cc21 (racemic) [Compound 125] sits at 60% or higher.
Out: TRUE

In: CCC1CCNc2cc3nc(C#N)cc(C(F)(F)F)c3cc21 (racemic) [Compound 129] ?
Out: FALSE

In: CC1(C)CCc2cc3c(C(F)(F)F)c(F)cnc3cc2N1 [Compound 126] ?
Out: TRUE

In: Cc1c2c(cc3c(C(F)(F)F)c(F)c(F)nc13)C(C)CC(C)(C)N2 (stereo not drawn) [Compound 115] ?
Out: FALSE

In: CCC1CCNc2cc3nc(Cl)c(F)c(C(F)(F)F)c3cc21 (racemic) [Compound 109] ?
Out: FALSE

====

# assayed.system: human AR (Homo sapiens)
# protocol: AR whole cell competitive binding assay (3H-DHT), COS-1 cells
What Ki was measured for each of the following?
The figure you give is taken to be in nM; do not add the unit.

In: Name the reported Ki value associated with the molecule CCC1CCNc2cc3nc(Cl)c(F)c(C(F)(F)F)c3cc21 (racemic)
Out: 119

In: CCC1CCNc2cc3nc(C#N)cc(C(F)(F)F)c3cc21 (racemic) ?
Out: 21

In: CC1(C)CCc2cc3c(C(F)(F)F)c(F)c(F)nc3cc2N1 ?
Out: 152

In: CC1(C)CCc2cc3c(C(F)(F)F)c(F)c(Cl)nc3cc2N1 ?
Out: 103

In: CCC1CCNc2cc3nc(C(F)(F)F)cc(C(F)(F)F)c3cc21 (racemic) ?
Out: 301

In: CCC1CCN(C)c2cc3nc(C#N)cc(C(F)(F)F)c3cc21 (racemic) ?
Out: 787

In: CCC1CCNc2cc3nc(SC)cc(C(F)(F)F)c3cc21 (racemic) ?
Out: 307

In: CC1(C)CCc2cc3c(C(F)(F)F)c(F)cnc3cc2N1 ?
Out: 58

In: CC1(C)CCc2cc3c(C(F)(F)F)c(F)c(Br)nc3cc2N1 ?
Out: 91

In: CCC1CCNc2cc3nc(Cl)cc(C(F)(F)F)c3cc21 (racemic) ?
Out: 81

In: CCC1CCNc2cc3nc([S+](C)[O-])cc(C(F)(F)F)c3cc21 (racemic) ?
Out: 34

In: CCC1CCNc2cc3nc(F)cc(C(F)(F)F)c3cc21 (racemic) ?
Out: 5

In: CCC1CCNc2cc3nccc(C(F)(F)F)c3cc21 (racemic) ?
Out: 93

In: CCC1CCNc2cc3nc(Br)cc(C(F)(F)F)c3cc21 (racemic) ?
Out: 55

====

What log10 of IC50 was measured for each of the following?
# assayed.system: human AR (Homo sapiens, UniProt P10275)
# protocol: Co-transfection assay, AR antagonist, CV-1 cells (in presence of DHT)
# Type: cell-based
Would you kindly interpret these values as log10 of IC50 expressed in nM?

In: Name the reported log10 of IC50 value associated with the compound CCC1CCNc2cc3nc(C#N)cc(C(F)(F)F)c3cc21 (racemic)
Out: 1.18

In: CC1(C)CCc2cc3c(C(F)(F)F)c(F)c(Br)nc3cc2N1 ?
Out: 1.67

In: CCC1CCNc2cc3nc(Cl)c(F)c(C(F)(F)F)c3cc21 (racemic) ?
Out: 1.59

In: Cc1c2c(cc3c(C(F)(F)F)c(F)c(Cl)nc13)C(C)CC(C)(C)N2 (centres unmarked) ?
Out: 2.74

In: CC1(C)CCc2cc3c(C(F)(F)F)c(F)cnc3cc2N1 ?
Out: 2.26

In: C[S+]([O-])c1nc2cc3c(cc2c(C(F)(F)F)c1F)CCC(C)(C)N3 (racemic) ?
Out: 3.13

In: CCC1CCNc2cc3nc(SC)cc(C(F)(F)F)c3cc21 (racemic) ?
Out: 2.12

In: CCC1CCNc2cc3nc(Cl)cc(C(F)(F)F)c3cc21 (racemic) ?
Out: 1.70

====

# assayed.system: UniProt P10275
# protocol: AR whole cell competitive binding assay (3H-DHT), COS-1 cells
# assay.context: COS-1 cells, 1 nM 3H-DHT, Cheng-Prusoff; read-out: AR Binding KI
outcome.measure: pKi
# pKi is unitless: minus log10 of the molar concentration; print number only

In: Request: pKi, test system UniProt P10275, entry Cc1ccc(C(=O)N2c3cc4c(cc3C(C(F)(F)F)=CC2C#N)CCC(C)(C)N4)cc1 (racemic)
Out: 6.06

====

# assayed.system: UniProt P03372
# Sequence (P03372 1-595): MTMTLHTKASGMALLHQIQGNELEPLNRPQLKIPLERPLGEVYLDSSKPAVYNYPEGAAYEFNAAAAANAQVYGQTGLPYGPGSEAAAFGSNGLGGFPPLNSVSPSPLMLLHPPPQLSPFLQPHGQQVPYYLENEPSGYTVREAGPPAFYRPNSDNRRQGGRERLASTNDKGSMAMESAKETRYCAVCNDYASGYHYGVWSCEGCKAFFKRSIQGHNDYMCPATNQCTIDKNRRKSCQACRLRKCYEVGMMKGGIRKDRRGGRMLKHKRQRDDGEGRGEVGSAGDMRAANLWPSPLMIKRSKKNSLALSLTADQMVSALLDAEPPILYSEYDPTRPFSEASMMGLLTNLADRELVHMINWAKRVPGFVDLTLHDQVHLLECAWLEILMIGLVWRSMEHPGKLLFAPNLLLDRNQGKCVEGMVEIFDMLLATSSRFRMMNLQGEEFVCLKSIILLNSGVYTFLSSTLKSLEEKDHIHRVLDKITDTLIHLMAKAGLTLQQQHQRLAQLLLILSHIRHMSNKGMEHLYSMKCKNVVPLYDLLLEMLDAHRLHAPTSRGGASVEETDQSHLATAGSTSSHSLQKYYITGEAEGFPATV
# protocol: Co-transfection assay, ER agonist
# assay.context: Table 2; read-out: ER Potency Agon
pEC50: −log10 of the molar value.
outcome.measure: pEC50

In: Name the reported pEC50 value associated with the molecule CC(C)(O)C(=O)Nc1ccc([N+](=O)[O-])c(C(F)(F)F)c1 [Flut]
Out: < 5.00

====

What IC50 was measured for each of the following?
# assayed.system: human AR (Homo sapiens)
# protocol: Co-transfection assay, AR antagonist, CV-1 cells (in presence of DHT)
# Format: cell-based
The figure you give is taken to be in nM; do not add the unit.

In: Name the reported IC50 value associated with the molecule Cc1c2c(cc3c(C(F)(F)F)c(F)c(F)nc13)C(C)CC(C)(C)N2 (centres unmarked)
Out: 1140

In: CCC1CCNc2cc3nccc(C(F)(F)F)c3cc21 (racemic) ?
Out: 56

In: CCC1CCNc2cc3nc(C(F)(F)F)cc(C(F)(F)F)c3cc21 (racemic) ?
Out: 117

In: CC1(C)CCc2cc3c(C(F)(F)F)c(F)c(F)nc3cc2N1 ?
Out: 500

In: CC1(C)CCc2cc3c(cc2N1)N(C(=O)c1ccccc1)C(C#N)C=C3C(F)(F)F (racemic) ?
Out: 63

In: CCC1CCNc2cc3nc([S+](C)[O-])cc(C(F)(F)F)c3cc21 (racemic) ?
Out: 4690

In: CC1(C)CCc2cc3c(C(F)(F)F)c(F)c(Cl)nc3cc2N1 ?
Out: 17

In: CCC1CCN(C)c2cc3nc(C#N)cc(C(F)(F)F)c3cc21 (racemic) ?
Out: 782
